Entry source: patent US20230250167A1

biological target: T1, cynomolgus ILT7 expressed on transfected cells (cynomolgus, UniProt P59901 24-499 (human entry)); test: flow cytometry on CT-125 cells expressing cynomolgus ILT7
T1 construct: also called cyno ILT7; CynoILT7 CT-125 cells
T1 sequence (P59901 other isoform, or with tags, fused parts or gaps limits assumed): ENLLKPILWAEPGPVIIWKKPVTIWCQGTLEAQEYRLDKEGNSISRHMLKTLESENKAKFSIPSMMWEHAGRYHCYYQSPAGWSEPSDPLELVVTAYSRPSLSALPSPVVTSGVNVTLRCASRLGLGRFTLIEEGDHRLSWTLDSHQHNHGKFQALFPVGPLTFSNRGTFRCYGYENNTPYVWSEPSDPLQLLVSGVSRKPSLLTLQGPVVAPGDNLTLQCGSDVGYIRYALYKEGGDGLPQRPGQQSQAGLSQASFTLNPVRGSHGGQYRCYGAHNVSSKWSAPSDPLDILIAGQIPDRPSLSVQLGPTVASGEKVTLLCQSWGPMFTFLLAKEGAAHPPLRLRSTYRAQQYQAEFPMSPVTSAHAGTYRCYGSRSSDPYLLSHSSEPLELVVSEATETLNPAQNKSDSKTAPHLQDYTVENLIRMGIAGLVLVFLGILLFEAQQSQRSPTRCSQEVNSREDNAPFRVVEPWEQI

Binder | binding result
ILT70080.7 (antibody, V domains shown, Engineered (germlined) ILT70080 variant tested as IgG1; also called ILT70080 variant) VH: QVQLVQSGAEVKKPGSSVKVSCKASGDSFRNYAVSWVRQAPGQGLEWMGAMMPSFGTREHSQQFQGRVTLTADESTSTAYMELSSLRSEDTAVYYCAGSRDYNAYHFWTGPPDFWGRGTLVTVSS VL: SYVLTQPPSVSVAPGKTARITCGGDSVGSTSVHWYQQKPGQAPVLVMFYNSDRPSGIPERFSGSNSGNTATLTISRVEAGDEADYYCQVWDTSSDHPEFGGGTKLTVL | binds
ILT70083.4 (antibody, V domains shown, Engineered (germlined) ILT70083 IgG1 variant; also called ILT70083 variant) VH: EVQLLESGGGLVQPGGSLRLSCAASGFTFSSYAMSWVRQAPGKGLEWVSAISGSGGSTYYADSVKGWFTISRDNSKNTLYLQMNSLRAEDTAVYYCARRTYYYDSDGHSDVFDIWGRGTLVTVSS VL: QSVLTQPPSVSAAPGQKVTISCSGSASNIGSNFVSWYQQLPGTAPKLLIYDNDKRDLGIPDRFSGSKSGTSATLGITGLQTGDEADYYCGTWDTSLTVGVFGGGTKLTVL | binds
ILT70080.3 (antibody, V domains shown, Engineered (germlined) ILT70080 variant tested as IgG1; also called ILT70080 variant) VH: QVQLVQSGAEVKAPGTSVKVSCKASGDSFRNYAVSWVRQAPGQGLEWMGAMMPSFGTREHSQQFQGRVTLSADESTSTAYMELSSLRSEDTAVYYCAGSRDYNAYHFWTGPPDFWGRGTLVTVSS VL: SYVLTQPPSVSVAPGKTARITCGGDSVGSTSVHWYQQKPGQAPVMVMFYNSDRPSGIPERFSGSISGNTATLTISRVEAGDEADYYCQVWDTSSDHPEFGGGTKLTVL | binds
